All figures here come from PubChem BioAssay AID651687.

inhibition values for the compounds below.
- protocol: inhibitors of PGC1a acetylation signal, primary screen, cell-based, U2OS, AlphaScreen, inhibitor mode (AID 651687);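 note: 0% = neutral control wells and 100% = positive control wells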
- condition_info: AlphaScreen anti-acetyl-lysine, at 15.6 µM, hits give high values, with virally co-expressed GCN5 acetyltransferase
The whole screen tested about 350,000 compounds, of which about 600 (0.17%) were called active. Shown is part of a subset that was picked to be rich in actives.
Report only the number, with the unit % understood.

C[C@H](CO)N1C[C@H](C)[C@@H](CN(C)Cc2ccc(C(F)(F)F)cc2)Oc2ccc(NC(=O)Cn3cnnn3)cc2CC1=O = 6.38
O=C(Nc1ccc(C(F)(F)F)cc1)N[C@@H]1CC[C@H](CCNC(=O)c2ccccc2F)O[C@H]1CO = 10.8
Cc1nc2ccccc2n1CC(=O)N/N=C/c1cccs1 = 0.244

So what's the measured inhibition for this one? COc1ccc(S(=O)(=O)Nc2ccc3c(c2)C(=O)N([C@H](C)CO)C[C@H](C)[C@@H](CN(C)Cc2ccccc2)OCCCC[C@@H](C)O3)cc1 -2.9

Next compound up: NC(=O)N/N=C\c1cccs1 76.7
